Reference source: patent US20240279318A1

biological target: T1, AFP158/HLA-A*02:01 complex (human); experiment: SPR, KD ratio to AS170036 VL1VH1;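 note: crude scFv captured on a sensor chip, peptide–HLA complex passed over at several concentrations, association then buffer dissociation, KD derived from on- and off-rates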
T1 construct: flowed over the chip in SPR; also called AFP158 pro
# Affinity increase values compiled below
Supply the numeric figure in fold, leaving out any unit text.

Recorded results for 3 binders are shown here.
>  <Binder>
LH98I (scFv, AS170036 VL1VH1 scFv mutein; also called AS170036 VL1VH1-VLH98I) scFv: QSALTQPRSVSGSPGQSVTISCAGTSSDVGSENYVSWYQQHPGKAPKLMIYQVNKRASGVPDRFSGSKSGNTASLTISGLQAEDEADYYCASYRSSDINIVFGGGTKLTVLGGGGSGGGGSGGGGSEVQLVESGGGLVQPGGSLRLSCAASGFTFSSYAMSWVRQAPGKGLEWVSTINSGTGSPYYADSVKGRFTISRDNSKNTLYLQMNSLRAEDTAVYYCAKNFFDGSWFLGPPAMDYWGQGTLVTVSSHHHHHH

>  <Measurement type>
Affinity increase

>  <Observed result>
3.1

$$$$
>  <Binder>
LE32D (scFv, AS170036 VL1VH1 scFv mutein) scFv: QSALTQPRSVSGSPGQSVTISCAGTSSDVGSDNYVSWYQQHPGKAPKLMIYQVNKRASGVPDRFSGSKSGNTASLTISGLQAEDEADYYCASYRSSDHNIVFGGGTKLTVLGGGGSGGGGSGGGGSEVQLVESGGGLVQPGGSLRLSCAASGFTFSSYAMSWVRQAPGKGLEWVSTINSGTGSPYYADSVKGRFTISRDNSKNTLYLQMNSLRAEDTAVYYCAKNFFDGSWFLGPPAMDYWGQGTLVTVSSHHHHHH

>  <Measurement type>
Affinity increase

>  <Observed result>
1.3

$$$$
>  <Binder>
LH98T (scFv, AS170036 VL1VH1 scFv mutein; also called AS170036 VL1VH1-VLH98T) scFv: QSALTQPRSVSGSPGQSVTISCAGTSSDVGSENYVSWYQQHPGKAPKLMIYQVNKRASGVPDRFSGSKSGNTASLTISGLQAEDEADYYCASYRSSDTNIVFGGGTKLTVLGGGGSGGGGSGGGGSEVQLVESGGGLVQPGGSLRLSCAASGFTFSSYAMSWVRQAPGKGLEWVSTINSGTGSPYYADSVKGRFTISRDNSKNTLYLQMNSLRAEDTAVYYCAKNFFDGSWFLGPPAMDYWGQGTLVTVSSHHHHHH

>  <Measurement type>
Affinity increase

>  <Observed result>
2.9

$$$$

Consider the additional binder presented here.
Exercise: I have this binder here, LY93L (scFv, AS170036 VL1VH1 scFv mutein) scFv: QSALTQPRSVSGSPGQSVTISCAGTSSDVGSENYVSWYQQHPGKAPKLMIYQVNKRASGVPDRFSGSKSGNTASLTISGLQAEDEADYYCASLRSSDHNIVFGGGTKLTVLGGGGSGGGGSGGGGSEVQLVESGGGLVQPGGSLRLSCAASGFTFSSYAMSWVRQAPGKGLEWVSTINSGTGSPYYADSVKGRFTISRDNSKNTLYLQMNSLRAEDTAVYYCAKNFFDGSWFLGPPAMDYWGQGTLVTVSSHHHHHH , and I need its recorded Affinity increase.
Key: 1.3
